Values compiled from patent US9505728B2.

I'd appreciate it if you could supply IC50 values for the items below.
Target entity: Human PPARα (Homo sapiens, UniProt Q07869)
Construct: host or cells: proprietary non-human mammalian cells
Test details: Human PPARα Reporter Assay (luciferase)
Type: cell-based
Settings: human PPARα reporter cells, overnight incubation, antagonism; read-out: Luciferase IC50
Give the value, in units of nM, as a plain number.

Look at this compound and give its reported IC50. CCn1c(CCCc2ccc(-c3cnc(NS(=O)(=O)Cc4ccccc4)cn3)cc2)nn(Cc2ccc(C(C)(C)C)cc2)c1=O [Example 119]
941

Please do the same for CCn1c(CCCc2ccc(-c3ccc(OC)c(C4(C(=O)O)CCC4)c3)cc2)nn(Cc2ccc(C(C)(C)C)cc2)c1=O [Example 133] as well.
597

Please do the same for CCn1c(CCCc2ccc(-c3ccc(OC)c([C@H](C)C(=O)O)c3)cc2)nn(Cc2ccc(C(C)(C)C)cc2)c1=O [Example 142] as well.
272

Please do the same for CCOc1ccc(-c2ccc(CCCc3nn(Cc4ccc(C(C)(C)C)cc4)c(=O)n3CC)cc2)cc1C(=O)O [Example 66] as well.
3

Please do the same for CCn1c(CCCc2ccc(-c3ncc(NS(=O)(=O)c4ccccc4)cn3)cc2)nn(Cc2ccc(C(C)(C)C)cc2)c1=O [Example 108] as well.
165

Please do the same for CCn1c(CCCc2ccc(-c3ccc(OC)c(NS(=O)(=O)C4CCCCC4)n3)cc2)nn(Cc2ccc(C(C)(C)C)cc2)c1=O [Example 192] as well.
12

Please do the same for CCn1c(CCCc2ccc(-c3cc(OC)c(N)cn3)cc2)nn(Cc2ccc(C(C)(C)C)cc2)c1=O [Example 111] as well.
641

---

Target entity: Human PPARα (Homo sapiens)
Construct: host or cells: proprietary non-human mammalian cells
Sequence (Q07869 1-468): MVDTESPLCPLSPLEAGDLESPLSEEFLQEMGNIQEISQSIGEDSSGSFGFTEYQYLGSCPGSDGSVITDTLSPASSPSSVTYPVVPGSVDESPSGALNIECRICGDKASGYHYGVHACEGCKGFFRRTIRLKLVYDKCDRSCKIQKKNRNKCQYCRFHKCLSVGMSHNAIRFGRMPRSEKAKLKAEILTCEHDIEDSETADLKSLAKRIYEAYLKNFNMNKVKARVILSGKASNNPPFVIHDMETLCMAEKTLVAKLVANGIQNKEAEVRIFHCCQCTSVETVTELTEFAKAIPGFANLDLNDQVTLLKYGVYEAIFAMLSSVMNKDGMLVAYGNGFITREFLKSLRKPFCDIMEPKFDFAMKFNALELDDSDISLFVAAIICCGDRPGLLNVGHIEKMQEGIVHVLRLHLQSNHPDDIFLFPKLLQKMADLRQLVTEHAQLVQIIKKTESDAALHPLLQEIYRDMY
Test details: Human PPARα Reporter Assay (luciferase)
Assay type: cell-based
Settings: human PPARα reporter cells, overnight incubation, antagonism; read-out: Luciferase IC50
pIC50: −log10 of the molar value.
Label scheme for pIC50: lower than 7 is n, 7 and above is y.

Exam item: decide whether the reported pIC50 for "CCn1c(CCCc2ccc(-c3ccc(OC)c(NS(=O)(=O)c4ccc(C(F)(F)F)cc4)n3)cc2)nn(Cc2ccc(C(C)(C)C)cc2)c1=O" is at least 7.
y

Please do the same for "COc1ccc(-c2ccc(CCCc3nn(Cc4ccc(C(C)(C)C)cc4)c(=O)n3CC(F)(F)F)cc2)cc1CC(=O)O" as well.
n

Please do the same for CCn1c(CCCc2ccc(-c3cccc(C(Cc4ccccc4)C(=O)O)c3)cc2)nn(Cc2ccc(C(C)(C)C)cc2)c1=O (stereo not shown) as well.
n

Please do the same for "CCn1c(CCCc2ccc(-c3cccc(CNS(C)(=O)=O)c3)cc2)nn(Cc2ccc(C(C)(C)C)cc2)c1=O" as well.
n

Please do the same for "CCn1c(CCCc2ccc(-c3ccc(N)cn3)cc2)nn(Cc2ccc(C(C)(C)C)cc2)c1=O" as well.
y

Please do the same for "CCn1c(CCCc2ccc(-c3ccc(OC)c(NS(=O)(=O)c4ccc(Cl)cc4)n3)cc2)nn(Cc2ccc(C(C)(C)C)cc2)c1=O" as well.
y

---

I'd appreciate it if you could supply pIC50 values for the items below.
Target entity: Human PPARα (Homo sapiens, UniProt Q07869)
Construct: host or cells: proprietary non-human mammalian cells
Sequence (Q07869 1-468): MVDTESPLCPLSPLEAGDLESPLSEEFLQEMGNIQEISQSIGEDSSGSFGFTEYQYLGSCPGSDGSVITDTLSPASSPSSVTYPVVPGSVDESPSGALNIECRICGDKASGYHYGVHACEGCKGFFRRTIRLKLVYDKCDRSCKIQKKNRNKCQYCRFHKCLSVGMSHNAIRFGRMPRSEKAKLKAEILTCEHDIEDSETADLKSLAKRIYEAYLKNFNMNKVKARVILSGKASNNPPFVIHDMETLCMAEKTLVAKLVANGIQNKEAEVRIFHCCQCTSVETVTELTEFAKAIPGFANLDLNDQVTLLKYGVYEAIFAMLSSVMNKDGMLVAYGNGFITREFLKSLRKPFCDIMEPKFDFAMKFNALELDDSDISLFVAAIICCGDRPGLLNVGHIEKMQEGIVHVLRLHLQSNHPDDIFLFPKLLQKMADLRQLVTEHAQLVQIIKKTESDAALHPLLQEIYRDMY
Test details: Human PPARα Reporter Assay (luciferase)
Format: cell-based
Settings: human PPARα reporter cells, overnight incubation, antagonism; read-out: Luciferase IC50
Would you please state pIC50, meaning minus log10 of the concentration in mol/L, as a bare number?

Look at this compound and give its reported pIC50. CCn1c(CCCc2ccc(-c3ccc(C4(F)COC4)cc3)cc2)nn(Cc2ccc(C(C)(C)C)cc2)c1=O [Example 143]
7.00

Please do the same for CCn1c(CCCc2ccc(-c3ccc(OC)c(CCNS(=O)(=O)c4ccccc4)c3)cc2)nn(Cc2ccc(C(C)(C)C)cc2)c1=O [Example 182] as well.
6.38

Please do the same for CCn1c(CCCc2ccc(-c3cccc(C(C)C(=O)O)c3)cc2)nn(Cc2ccc(C(C)(C)C)cc2)c1=O (stereo not shown) [Example 44] as well.
6.19

Please do the same for CCOc1ccc(-c2ccc(CCCc3nn(Cc4ccc(C(C)(C)C)cc4)c(=O)n3C)cc2)cc1CC(=O)O [Example 95] as well.
7.82

---

Target entity: Human PPARα (Homo sapiens)
Construct: host or cells: proprietary non-human mammalian cells
Test details: Human PPARα Reporter Assay (luciferase)
Assay type: cell-based
Settings: human PPARα reporter cells, overnight incubation, antagonism; read-out: Luciferase IC50
I'd appreciate it if you could supply IC50 values for the items below.
Give the value, in units of nM, as a plain number.

Look at this compound and give its reported IC50. "CCn1c(CCCc2ccc(-c3cc(NS(=O)(=O)c4ccccc4)ccn3)cc2)nn(Cc2ccc(C(C)(C)C)cc2)c1=O"
90

Please do the same for "CCn1c(CCCc2ccc(-c3ccc(F)c(CC(=O)O)c3)cc2)nn(Cc2ccc(C(C)(C)C)cc2)c1=O" as well.
427

Please do the same for "CCCn1c(CCCc2ccc(-c3ccc(OCC)c(CC(=O)O)c3)cc2)nn(Cc2ccc(C(C)(C)C)cc2)c1=O" as well.
32

Please do the same for "CCn1c(CCCc2ccc(-c3ccc(OC)c(C(=O)O)c3)cc2)nn(Cc2ccc(C(C)(C)C)cc2)c1=O" as well.
6

Please do the same for "CCn1c(CCCc2ccc(-c3ccc(OC)c(NS(=O)(=O)Cc4ccccc4)n3)cc2)nn(Cc2ccc(C(C)(C)C)cc2)c1=O" as well.
10

Please do the same for "CCn1c(CCCc2ccc(-c3cccc(CC(=O)O)c3)cc2)nn(Cc2ccc(C(C)(C)C)c(C)c2)c1=O" as well.
116

Please do the same for "CCn1c(CCCc2ccc(-c3ccc(OC)c(CCC(=O)O)c3)cc2)nn(Cc2ccc(C(C)(C)C)cc2)c1=O" as well.
121

---

Target entity: Human PPARα (Homo sapiens)
Construct: host or cells: proprietary non-human mammalian cells
Test details: Human PPARα Reporter Assay (luciferase)
Assay type: cell-based
Settings: human PPARα reporter cells, overnight incubation, antagonism; read-out: Luciferase IC50
Property name: log10(IC50) (log10 of the value in nM)
Values are log10 of IC50 in nM.

Look at this compound and give its reported log10(IC50). "CCn1c(CCCc2ccc(-c3csc(C4(F)COC4)n3)cc2)nn(Cc2ccc(C(C)(C)C)cc2)c1=O"
2.73

Please do the same for "CCn1c(CCCc2ccc(-c3ccc(NS(=O)(=O)c4ccc(OC)cc4)cn3)cc2)nn(Cc2ccc(C(C)(C)C)cc2)c1=O" as well.
2.13

Please do the same for "CCn1c(CCCc2ccc(-c3cccc(C(=O)NS(=O)(=O)c4ccccc4)c3)cc2)nn(Cc2ccc(C(C)(C)C)cc2)c1=O" as well.
2.56

Please do the same for "CCn1c(CCCc2ccc(-c3ccc(SC)c(CC(=O)O)c3)cc2)nn(Cc2ccc(C(C)(C)C)cc2)c1=O" as well.
1.58

Please do the same for "CCn1c(CCCc2ccc(-c3cccc(NS(=O)(=O)N(C)C)c3)cc2)nn(Cc2ccc(C(C)(C)C)cc2)c1=O" as well.
2.83

Please do the same for CCn1c(CCCc2ccc(-c3ccc(C(O)C(=O)NC4CC4)cc3)cc2)nn(Cc2ccc(C(C)(C)C)cc2)c1=O (stereo not shown) as well.
2.47

Please do the same for "CCn1c(CCCc2ccc(-c3cccc(C(F)(F)C(=O)O)c3)cc2)nn(Cc2ccc(C(C)(C)C)cc2)c1=O" as well.
3.30
